Compiled record: pIC50 values for UniProtKB P21802 across several sources.
pIC50: −log10 of the molar value.

Answered examples (2):
>  <compound>
Cn1nccc1-c1ccc2c(-c3cc(NS(C)(=O)=O)cc(-c4ccc(F)cc4F)c3)cnn2c1

>  <pIC50>
6.44

$$$$
>  <compound>
COc1cc(OC)c(F)c(N2Cc3cnc(N)c(Cl)c3N(C)C2=O)c1F

>  <pIC50>
> 7.00

$$$$

Qu. Return pIC50 measured with UniProtKB P21802 given this compound: COc1cc(OC)c(Cl)c(-c2ncc3c(-c4cnn(C(C)C#N)c4)n[nH]c3n2)c1Cl (stereo not drawn)
Ans. > 7.00

Qu. Return pIC50 measured with UniProtKB P21802 given this compound: COc1cc(OC)c(F)c(N2Cc3cnc(NC4CCC4)cc3C3(CC3)C2=O)c1F
Ans. > 7.00

Qu. Return pIC50 measured with UniProtKB P21802 given this compound: N#Cc1ccc(NC(=O)N2CCCc3ccc(C=O)nc32)nc1
Ans. < 5.00

Qu. Return pIC50 measured with UniProtKB P21802 given this compound: COc1cc(OC)c(F)c(N2Cc3cnc(NC4CCN(C)CC4)cc3C3(CC3)C2=O)c1F
Ans. > 7.00

Qu. Return pIC50 measured with UniProtKB P21802 given this compound: COc1cc(OC)c(F)c(-c2cc3[nH]nc(-c4ccc5c(c4)CN(C4CCN(C)CC4)C5=O)c3cn2)c1F
Ans. > 7.00

Qu. Return pIC50 measured with UniProtKB P21802 given this compound: Clc1cccc(Nc2cncc(-c3cncc(NCCCc4ccncc4)c3)n2)c1
Ans. 6.50

Qu. Return pIC50 measured with UniProtKB P21802 given this compound: COCCOc1cc(NC(=O)N2CCCCc3ccc(C=O)nc32)ncc1C#N
Ans. < 5.00

Qu. Return pIC50 measured with UniProtKB P21802 given this compound: C=CC(=O)NCc1cc2c(cn1)CN(c1c(F)c(OC)cc(OC)c1F)C(=O)N2C1CC1
Ans. < 6.70

Qu. Return pIC50 measured with UniProtKB P21802 given this compound: COc1cc(OC)c(Cl)c(-c2cc3[nH]nc(-c4cnn(C)c4)c3cn2)c1Cl
Ans. > 7.00

Qu. Return pIC50 measured with UniProtKB P21802 given this compound: Cn1cc(-c2ccc3c(-c4cc(NS(C)(=O)=O)nc(-c5ccc(F)cc5F)c4)cnn3c2)cn1
Ans. 8.43
